# System: DU-145 prostate
# test.description: NCI tumour cell line growth inhibition, 48 h
parameter.measured: TGI (µM)
Numbers only, in µM.

CCSc1nc(N)c2cnn(CC)c2n1 :: 40.3
CC1=C(SCCC(=O)OC(C[Se]C2=C(C)C(=O)c3ccccc3C2=O)C(=O)NC(C)(C)C)C(=O)c2ccccc2C1=O (stereo unspecified) :: 2.82

Report TGI for every entry below.
1. Cc1ccc2c(=O)cc(-c3cccc(F)c3)[nH]c2n1
2. CCN(CC)CCNc1ccc([N+](=O)[O-])c2nc3ccc(OC)cc3c(N)c12

Result:
[1.23, 3.07]

* * *

# Test system: PC-3 prostate
# test.description: NCI tumour cell line growth inhibition, 48 h
Where a SMILES comes first, the peptide text is derived from it. [ ]: non-standard residue; d: D form.
parameter.measured: TGI

Use these answered entries as a reference point.
Nc1c(C(=O)O)nnc2cc(Cl)ccc12 :: > 100 µM
C1CC[N-]CC1.CC(=N\O)/C(C)=N/O.CC(=N\O)/C(C)=N/O.C[CH-]C(C)O.[Co+2] :: 70.8 µM
COc1ccc(/C=C2/CSC/C(=C/c3ccc(OC)c(OC)c3)C2=O)cc1OC :: 11.7 µM
CN(C)Cc1cc(C(C)(C)C)cc(CN(C)C)c1O :: > 100 µM
Nc1ccn(CC(O)c2cc3ccccc3[nH]2)c(=O)n1 (configuration not stated) :: > 100 µM
Cn1c2ccccc2c2c3c(c4c5ccccc5n(C)c4c21)C(=O)N(c1ccccc1)C3=O :: > 100 µM
Nc1ccn(C2CC3OCC3O2)c(=O)n1 (configuration not stated) :: > 100 µM
CC1=NN2CCC(=O)N=C2S1 :: > 100 µM
COc1ccc2c(c1)[nH]c1c3ccc(OC)cc3oc(=O)c21 :: > 100 µM
N/C(CC(=O)NOC(=O)c1ccccc1)=N/OC(=O)c1ccccc1 :: > 100 µM

Report TGI for every entry below.
1. O=C1Nc2ccccc2SC1=C(C(=O)c1ccccc1)C(=O)c1ccccc1
2. CSCC[C@H](NC(=O)[C@@H](N)CC(N)=O)C(=O)N[C@@H](Cc1c[nH]c2ccccc12)C(=O)N[C@@H](CCC(N)=O)C(=O)N[C@@H](CCC(=O)O)C(=O)N[C@H](C(=O)NCC(=O)N[C@@H](CCCCN)C(=O)N[C@H](C)C(=O)O)C(C)C (H-NMWQEVGK[dA]-OH)
3. Cc1ccc(C)c2c1n1c(=O)n(C)c(=O)n21
4. CCCCCCCCCCOc1ccc(N=Nc2nnc(-c3ccc(OCCCCC)cc3)s2)cc1
5. O=C(O)c1cccc(S(=O)(=O)NN2C(=O)CSC2c2c(O)ccc3ccccc23)c1 (configuration not stated)

Result:
1. > 100 µM
2. > 100 µM
3. > 100 µM
4. > 100 µM
5. > 100 µM

* * *

# Test system: SF-295 CNS
# test.description: NCI tumour cell line growth inhibition, 48 h
Where a SMILES comes first, the peptide text is derived from it. [ ]: non-standard residue; d: D form.
parameter.measured: TGI

O=C1C(OC(=O)c2ccccc2)=C(c2ccc(O)cc2)C(=O)C(OC(=O)c2ccccc2)=C1c1ccc(O)cc1 :: > 100 µM
COc1cccc(N(CN2C(=O)CCC2OC)C(C)=O)c1 (centres undefined) :: > 100 µM
CC(=O)[O][Hg][c]1s[c]([Hg][O]C(C)=O)[c]([Hg][O]C(C)=O)[c]1[Hg][O]C(C)=O :: 40.1 µM
Nc1ncc2c(n1)-c1ccccc1OC2 :: > 100 µM
CSCC[C@H](NC(=O)[C@@H](N)CC(N)=O)C(=O)N[C@@H](Cc1c[nH]c2ccccc12)C(=O)N[C@@H](CCC(N)=O)C(=O)N[C@@H](CCC(=O)O)C(=O)N[C@H](C(=O)NCC(=O)N[C@@H](CCCCN)C(=O)N[C@H](C)C(=O)O)C(C)C (H-NMWQEVGK[dA]-OH) :: > 100 µM

Report TGI for every entry below.
1. CC(CC(=O)Nc1ccc(NC(=O)CC(C)N=NC(N)=O)cc1)N=NC(N)=O (centres undefined)
2. Cc1ccc([N+]2=NC(c3ccccc3)=NN(c3ccccc3)C2)cc1
3. Cc1cn2cc(-c3ccc4c(c3)CC(=O)N4)nc2s1
4. COC(=O)[C@@H](C)C[C@H](Cc1ccccc1)NC(=O)c1csc([C@@H](C[C@H](C(C)C)N(C)C(=O)[C@@H](NC(=O)[C@H]2CCCCN2C)C(C(F)(F)F)C(F)(F)F)OC(C)=O)n1

Result:
["> 100 µM", "> 100 µM", "> 100 µM", "> 16.7 µM"]

* * *

# Test system: SW-620 colon
# test.description: NCI tumour cell line growth inhibition, 48 h
Where a SMILES comes first, the peptide text is derived from it. [ ]: non-standard residue; d: D form. The star is where a group is joined. Cbz = O=C(OCc1ccccc1)*; Aib = CC(C)(N)C(=O)O
parameter.measured: TGI

Use these answered entries as a reference point.
OCC(S)CS.[Bi] (stereo not given) :: > 100 µM
CCN1CCC(O)(/C=C/c2ccccc2)C(C(=O)/C=C/c2ccccc2)C1 (stereo not given) :: 3.41 µM
CCOC(=O)C1=C(C)N(Cc2ccccc2)C2(O)C(OC)CC(=O)C3C(=O)N(c4ccccc4)C(=O)C132 (stereo not given) :: > 100 µM
CC(=O)OC1=C(CC(C)(C)C)C(=O)c2ccccc2C1=O :: > 100 µM
CCOc1ccccc1N=Cc1c2ccccc2cc2ccccc12 :: > 100 µM
Cn1c2ccccc2c2c3c(c4c5ccccc5n(C)c4c21)C(=O)N(c1ccccc1)C3=O :: > 100 µM

Report TGI for every entry below.
1. CNC(=O)c1cc(-c2ccc(F)cc2)cc(-c2ccc(S(=O)(=O)N3CCCC3)cc2)c1N
2. O=C(O)C1CSC2(CCCN(Cc3ccccc3)C2)N1 (stereo not given)
3. O=C(Cn1c(=O)oc2ccc(C(=O)c3cccc(Cl)c3)cc21)c1ccccc1
4. Nc1ccn(C2CC3OCC3O2)c(=O)n1 (stereo not given)
5. Cc1cc(S(=O)(=O)Nc2n[nH]c(Nc3ccccc3)n2)c(SSc2cc(Cl)c(C)cc2S(=O)(=O)Nc2n[nH]c(Nc3ccccc3)n2)cc1Cl

Result:
["> 25 µM", "> 100 µM", "> 100 µM", "> 100 µM", "> 100 µM"]

Report TGI for every entry below.
1. O=C1C(OC(=O)c2ccccc2)=C(c2ccc(O)cc2)C(=O)C(OC(=O)c2ccccc2)=C1c1ccc(O)cc1
2. CSc1nc2ccc(C)cc2cc1/C=C1/C=C(c2ccccc2)NC1=O

Result:
["> 100 µM", "92.1 µM"]

Report TGI for every entry below.
1. C=C1CC(O)C2C(=C)C(=O)OC2C2C(C)C(=O)CC12 (stereo not given)
2. N#C/C(=C1\OC(N)=C(c2ccc(Cl)cc2)C1=O)c1ccc(Cl)cc1
3. CC(C)(NC(=O)C(C)(C)NC(=O)OCc1ccccc1)C(=O)O (Cbz-[Aib]-[Aib]-OH)

Result:
1. 30.7 µM
2. 25.9 µM
3. > 100 µM

Report TGI for every entry below.
1. CC1=CC(=O)N2C(OC[C@@H]2c2ccccc2)O1 (stereo not given in full)
2. Cn1cccc1-c1cc(-c2ccccc2)nc(N)c1C#N
3. Fc1ccc2c(c1)nc1n2C(c2c(F)cccc2F)SC1 (stereo not given)
4. CCOC(=O)Cc1cc(=O)[nH]c(-n2[nH]c(C)c(CCO)c2=O)n1
5. COc1ccc(C2NC(N)=C(C#N)C3=C2C(C)CCC3)cc1OC (stereo not given)
6. Cn1c(-c2c(C3=CC(=O)N(c4ccccc4)C3=O)c3ccccc3n2C)cc2ccccc21
7. COc1ccc(/C=C/C(=O)c2ccc(Nc3nc(Nc4ccc(F)cc4)nc(Nc4ccc(F)cc4)n3)cc2)cc1

Result:
> 100 µM
> 100 µM
> 100 µM
> 100 µM
> 100 µM
> 100 µM
82.1 µM

Report TGI for every entry below.
1. CCSc1nc(N)c2cnn(CC)c2n1
2. COc1ccc2c(c1)[nH]c1c3ccc(OC)cc3oc(=O)c21
3. CNc1nc(-c2ccc3c(N)n[nH]c3c2)cc(N2C[C@@H](C(=O)NC3CCCCC3)CC[C@H]2C)n1
4. Cc1cc(O)c(C(C)C)cc1C(=S)Nc1ccc(Cl)cc1
5. COc1ccc(C2=Nc3c(nc(SC)[nH]c3=O)NC(c3ccccc3)C2)cc1 (stereo not given)

Result:
18.2 µM
> 100 µM
23.4 µM
33.9 µM
> 100 µM

Report TGI for every entry below.
1. COc1cc([C@@H]2c3cc4c(cc3[C@@H](NCc3cccc(F)c3)C3COC(=O)[C@@H]32)OCO4)cc(OC)c1O (stereo not given in full)
2. COC(=O)C(C)Oc1ccc(O)cc1 (stereo not given)
3. Nc1c(C(=O)O)nnc2cc(Cl)ccc12
4. Cc1cc2nc(-c3ccc(O)c(O)c3)n(Cc3ccc(O)c(O)c3)c2cc1C

Result:
1. 22.5 µM
2. > 100 µM
3. > 100 µM
4. > 100 µM

Report TGI for every entry below.
1. Cc1ccc2c(=O)cc(-c3cccc(F)c3)[nH]c2n1
2. C[C@@H](C[C@H](CCO)c1ccccc1)c1ccc2ccccc2c1
3. Clc1ncnc2c1nc(C#Cc1ccccc1)n2C1CCCCO1 (stereo not given)
4. O/N=C1\C(=C\c2ccc3c(c2)OCCO3)CCCC1C(NO)c1ccc2c(c1)OCCO2 (stereo not given)
5. O=C(CN1CCN(c2ccccn2)CC1)N1CCCn2c1nc1ccccc1c2=O

Result:
> 100 µM
3.14 µM
4.94 µM
> 100 µM
> 100 µM

Report TGI for every entry below.
1. Cc1nc(-n2nc(-c3ccccc3)cc2-c2ccccc2)sc1C(=O)CC(=O)C(=O)Nc1ccc(O)cc1
2. CC1=C(C(=O)NCc2ccccc2)C(c2ccco2)C(C(=O)NCc2ccccc2)=C(C)N1
3. COC(=O)Nc1nc2ccc(C(=O)c3cccs3)cc2[nH]1

Result:
["> 100 µM", "> 100 µM", "> 100 µM"]

The reported numbers originate from PubChem BioAssay (NCI).
